- Test system: production of prostaglandin E2 by human fibroblasts
- EXPERIMENTAL_DETAILS: Inhibition of Production of Prostaglandin E2 in Human Fibroblasts (IL-1 stimulation)
- Assay type: cell-based
- PARTICULARS: Fibroblast; human fibroblasts under stimulation with IL-1
- From the text: Test Example 2 Inhibition of Production of Prostaglandin E2 in Human Fibroblasts. […]
MEASURED_METRIC: IC50 (nM)
Enter your answer as a number in nM; do not include the unit.

# annotated cases, reported IC50 shown
{"columns": ["SMILES_STRUCTURE", "TEST_RESULT"],
 "data": [
  ["O=C1NC(=O)/C(=C/c2ccc(C(=O)NC[C@@H]3C[C@@H](OCc4ccccc4)CN3C(=O)c3ccccc3C(=O)c3ccccc3)cc2)S1", 730],
  ["O=C1NC(=O)/C(=C/c2ccc(C(=O)NC[C@@H]3C[C@@H](OCc4ccccc4-c4cccs4)CN3C(=O)c3ccccc3C(=O)c3ccc(F)cc3)cc2)S1", 280]
]}

// next item, IC50 requested
Provide IC50, system production of prostaglandin E2 by human fibroblasts, entry O=C1NC(=O)/C(=C/c2ccc(C(=O)NC[C@@H]3C[C@@H](OCc4ccccc4-c4ccccc4)CN3C(=O)c3cccc4c3C(=O)c3ccccc3-4)cc2)S1 170

###

Protein target, amino acids: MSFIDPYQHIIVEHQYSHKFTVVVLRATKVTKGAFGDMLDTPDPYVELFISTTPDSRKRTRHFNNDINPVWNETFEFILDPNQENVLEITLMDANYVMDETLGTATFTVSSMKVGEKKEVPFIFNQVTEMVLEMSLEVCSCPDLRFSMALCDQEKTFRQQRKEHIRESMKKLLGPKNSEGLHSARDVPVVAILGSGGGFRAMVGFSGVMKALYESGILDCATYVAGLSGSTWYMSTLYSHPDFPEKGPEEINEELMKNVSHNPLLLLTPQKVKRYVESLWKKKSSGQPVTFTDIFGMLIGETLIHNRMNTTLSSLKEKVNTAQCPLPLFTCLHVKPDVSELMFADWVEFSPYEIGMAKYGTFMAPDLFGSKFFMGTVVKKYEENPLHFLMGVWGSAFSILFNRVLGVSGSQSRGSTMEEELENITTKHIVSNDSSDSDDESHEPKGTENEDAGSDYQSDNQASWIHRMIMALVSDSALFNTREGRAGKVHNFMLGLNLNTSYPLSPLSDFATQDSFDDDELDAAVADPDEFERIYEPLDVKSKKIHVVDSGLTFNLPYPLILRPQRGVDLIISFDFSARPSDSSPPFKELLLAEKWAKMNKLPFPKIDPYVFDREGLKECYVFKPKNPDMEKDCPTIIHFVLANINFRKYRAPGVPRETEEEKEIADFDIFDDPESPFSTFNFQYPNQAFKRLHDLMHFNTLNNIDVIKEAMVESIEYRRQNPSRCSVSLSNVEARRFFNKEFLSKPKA
Each item that follows carries a reported pIC50.
The quantity pIC50 is defined as the negative base-10 logarithm of the molar concentration.

{"columns": ["COMPOUND", "TEST_RESULT"],
 "data": [
  ["O=C1NC(=O)/C(=C/c2ccc(C(=O)NC[C@@H]3C[C@@H](OCc4cccc(-c5ccc6ccccc6c5)c4)CN3C(=O)c3ccccc3C(=O)c3ccc(F)cc3)cc2)S1 [Compound A-42]", 6.85],
  ["O=C1NC(=O)/C(=C/c2ccc(C(=O)NC[C@@H]3C[C@@H](OCc4ccccc4-c4cccs4)CN3C(=O)c3ccccc3C(=O)c3ccc(F)cc3)cc2)S1 [Compound A-37]", 7.14],
  ["O=C1NC(=O)/C(=C/c2ccc(C(=O)NC[C@@H]3C[C@@H](OCc4ccccc4Cc4ccccc4)CN3C(=O)c3ccccc3C(=O)c3ccc(F)cc3)cc2)S1 [Compound A-32]", 7.17]
]}

Identify the reported pIC50 for the following entry. O=C1NC(=O)/C(=C/c2ccc(C(=O)NC[C@@H]3C[C@@H](Oc4ccc(-c5ccccc5)cc4)CN3C(=O)c3ccccc3C(=O)c3ccc(F)cc3)cc2)S1 [Compound A-70] 7.05

Return pIC50 (reported value) for this compound: O=C1NC(=O)/C(=C/c2ccc(/C=C/C[C@@H]3C[C@@H](OCc4ccccc4-c4ccccc4)CN3C(=O)c3ccccc3C(=O)c3ccc(F)cc3)cc2)S1 [Compound E-14] 7.01
